// IC50 lookup, one value per entry
assayed-target: human JAK1 kinase domain (JH1) (Homo sapiens)
Construct: recombinantly generated catalytic kinase (also known as JH1) domain of human JAK1, JAK2, JAK3 and TYK2
run-description: JH1 biochemical assay for JAK1 (ADP-Glo kinase assay, recombinant JH1 catalytic domain, JAK3-342 peptide, 35 μM ATP)
measurement-context: JAK1 JH1, ADP-Glo
Counter-ions that a name gives are not always drawn.

{"compound": "C[C@@H]1CN(c2nc(-c3cccc4cnn(C)c34)cn3nccc23)C(=O)[C@]1(C#N)C1CC1 [Example 242]", "IC50": "> 10000 nM"}
{"compound": "C[C@@H]1CN(c2nc(-c3cncc(F)c3)cn3nccc23)C(=O)[C@]1(C#N)C1CC1 [Example 246, trifluoroacetate]", "IC50": "100 to 1000 nM"}
{"compound": "COc1ncccc1-c1cn2nccc2c(N2C[C@@H](C)[C@@](C#N)(C3CC3)C2=O)n1 [Example 250]", "IC50": "100 to 1000 nM"}
{"compound": "C[C@@H]1CN(c2nc(-c3ccc(N(C)C(=O)OC(C)(C)C)nc3)cn3nccc23)C(=O)[C@]1(C#N)C1CC1 [Example 266, trifluoroacetate]", "IC50": "< 100 nM"}
{"compound": "C[C@@H]1CN(c2ccnn3cc(-n4cc(C(F)F)cn4)cc23)C(=O)[C@]1(C#N)C1CC1 [Example 338]", "IC50": "1000 to 5000 nM"}
{"compound": "C[C@@H]1CN(c2nc(-c3cnn(CC#N)c3)cn3ncc(F)c23)C(=O)[C@]1(C#N)C1CC1 [Example 220]", "IC50": "100 to 1000 nM"}
{"compound": "Cc1cncc(-c2cn3nccc3c(N3C[C@@H](C)[C@@](C#N)(C4CC4)C3=O)n2)c1 [Example 236]", "IC50": "100 to 1000 nM"}
{"compound": "COc1cncc(-c2cn3ncc(F)c3c(N3C[C@@H](C)[C@@](C#N)(C4CC4)C3=O)n2)c1 [Example 223]", "IC50": "1000 to 5000 nM"}
{"compound": "C[C@@H]1CN(c2nc(-c3cnn(C4CC(F)(F)C4)c3)cn3nccc23)C(=O)[C@]1(C#N)C1CC1 [Example 290]", "IC50": "< 100 nM"}
{"compound": "C[C@@H]1CN(c2cc(-c3cnn(C)c3)cc3nccn23)C(=O)[C@]1(C#N)C1CC1 [Example 287]", "IC50": "> 10000 nM"}

Suppose we examine the compound COc1ncc(-c2cn3nccc3c(N3C[C@@H](C)[C@@](C#N)(C4CC4)C3=O)n2)cn1 [Example 240, trifluoroacetate] ; what IC50 value has been reported?
> 10000 nM

Next compound up: C[C@@H]1CN(c2nn(-c3cccc(=O)n3C)c3cnccc23)C(=O)[C@]1(C#N)C1CC1 [Example 279]
> 10000 nM

Moving on to C[C@@H]1CN(c2ccnn3cc(-c4cnn([C@@H]5COCC(F)(F)C5)c4)cc23)C(=O)[C@]1(C#N)C1CC1 (single isomer, unassigned) [Example 328]
< 100 nM

Thanks! And C[C@@H]1CN(c2ccnn3cc(-c4cnn([C@H]5C[C@@](F)(C#N)C5)c4)cc23)C(=O)[C@]1(C#N)C1CC1 [Example 326] ?
< 100 nM

Again, but for CC(=O)Nc1cc(-c2cn3nccc3c(N3C[C@@H](C)[C@@](C#N)(C4CC4)C3=O)n2)ccn1 [Example 228]
< 100 nM

* * *

assayed-target: human JAK3 kinase domain (JH1) (Homo sapiens)
Construct: recombinantly generated catalytic kinase (also known as JH1) domain of human JAK1, JAK2, JAK3 and TYK2
Sequence (P52333 822-1111 limits assumed): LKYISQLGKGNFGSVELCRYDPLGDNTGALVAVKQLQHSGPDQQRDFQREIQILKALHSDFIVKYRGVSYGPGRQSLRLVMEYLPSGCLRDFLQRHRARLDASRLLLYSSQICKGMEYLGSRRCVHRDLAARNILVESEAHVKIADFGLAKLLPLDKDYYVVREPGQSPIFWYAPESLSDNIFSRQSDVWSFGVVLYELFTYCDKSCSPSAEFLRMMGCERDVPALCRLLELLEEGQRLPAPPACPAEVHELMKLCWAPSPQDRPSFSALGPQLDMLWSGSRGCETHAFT
run-description: JH1 biochemical assay for JAK3 (ADP-Glo kinase assay, recombinant JH1 catalytic domain, JAK3-974 peptide, 4 μM ATP)
measurement-context: JH1 kinase domain, ADP-Glo
pIC50: −log10 of the molar value. Counter-ions that a name gives are not always drawn.
pIC50 overview

{"molecule": "C[C@@H]1CN(c2ccnn3cc(-c4cccnc4)cc23)C(=O)[C@]1(C#N)C1CC1 [Example 60]", "assayed-target": "human JAK3 kinase domain (JH1) (Homo sapiens)", "pIC50": "6.00 to 7.00"}

Give the measured pIC50 of C[C@@H]1CN(c2ccnn3cc(-c4cnc(N(C)C)nc4)cc23)C(=O)[C@]1(C#N)C1CC1 [Example 91] .
5.30 to 6.00

Request: C[C@@H]1CN(c2ccnn3cc(-c4cnn(C)c4)cc23)C(=O)[C@@]1(C#N)C1CC1 [Example 21]
< 5.00

Would you mind doing C[C@@H]1CN(c2ccnn3cc(-c4cnc5n4CCCC5)cc23)C(=O)[C@]1(C#N)C1CC1 [Example 100, trifluoroacetate] as well?
5.30 to 6.00

* * *

assayed-target: human JAK3 kinase domain (JH1) (Homo sapiens)
Construct: recombinantly generated catalytic kinase (also known as JH1) domain of human JAK1, JAK2, JAK3 and TYK2
run-description: JH1 biochemical assay for JAK3 (ADP-Glo kinase assay, recombinant JH1 catalytic domain, JAK3-974 peptide, 4 μM ATP)
measurement-context: JH1 kinase domain, ADP-Glo
pIC50: −log10 of the molar value. Counter-ions that a name gives are not always drawn.
Reported pIC50 is given for each of the following compounds.

Consider the reported pIC50 for these compounds:
{"compound": "C[C@@H]1CN(c2nc(-c3cnc4c(c3)CCN4)cn3nccc23)C(=O)[C@]1(C#N)C1CC1", "pIC50": "> 7.00"}
{"compound": "C[C@@H]1CN(c2ccnn3cc(-c4cnn(C)c4)nc23)C(=O)[C@]1(C#N)C1CC1", "pIC50": "6.00 to 7.00"}
{"compound": "COc1cccnc1-c1cc2c(N3C[C@@H](C)[C@@](C#N)(C4CC4)C3=O)ccnn2c1 [Example 146, trifluoroacetate]", "pIC50": "5.00 to 5.30"}
{"compound": "Cn1cc(-c2cc3c(N4CC[C@](C#N)(C5CC5)C4=O)ccnc3[nH]2)cn1", "pIC50": "5.30 to 6.00"}

Please look up its pIC50: C[C@@H]1CN(c2ncnc3[nH]c(-c4cnn(C)c4)cc23)C(=O)[C@]1(C#N)C1CC1
5.30 to 6.00

Next compound: COc1ccnc(-c2cc3c(N4C[C@@H](C)[C@@](C#N)(C5CC5)C4=O)ccnn3c2)n1 [Example 122, trifluoroacetate]
< 5.00

Param item: COc1cc(-c2cc3c(N4C[C@@H](C)[C@@](C#N)(C5CC5)C4=O)ccnn3c2)c(OC)nn1
5.00 to 5.30

* * *

assayed-target: JAK1 kinase activity on STAT3 in TF1 cells (Homo sapiens, UniProt P23458)
Sequence (P23458 whole entry): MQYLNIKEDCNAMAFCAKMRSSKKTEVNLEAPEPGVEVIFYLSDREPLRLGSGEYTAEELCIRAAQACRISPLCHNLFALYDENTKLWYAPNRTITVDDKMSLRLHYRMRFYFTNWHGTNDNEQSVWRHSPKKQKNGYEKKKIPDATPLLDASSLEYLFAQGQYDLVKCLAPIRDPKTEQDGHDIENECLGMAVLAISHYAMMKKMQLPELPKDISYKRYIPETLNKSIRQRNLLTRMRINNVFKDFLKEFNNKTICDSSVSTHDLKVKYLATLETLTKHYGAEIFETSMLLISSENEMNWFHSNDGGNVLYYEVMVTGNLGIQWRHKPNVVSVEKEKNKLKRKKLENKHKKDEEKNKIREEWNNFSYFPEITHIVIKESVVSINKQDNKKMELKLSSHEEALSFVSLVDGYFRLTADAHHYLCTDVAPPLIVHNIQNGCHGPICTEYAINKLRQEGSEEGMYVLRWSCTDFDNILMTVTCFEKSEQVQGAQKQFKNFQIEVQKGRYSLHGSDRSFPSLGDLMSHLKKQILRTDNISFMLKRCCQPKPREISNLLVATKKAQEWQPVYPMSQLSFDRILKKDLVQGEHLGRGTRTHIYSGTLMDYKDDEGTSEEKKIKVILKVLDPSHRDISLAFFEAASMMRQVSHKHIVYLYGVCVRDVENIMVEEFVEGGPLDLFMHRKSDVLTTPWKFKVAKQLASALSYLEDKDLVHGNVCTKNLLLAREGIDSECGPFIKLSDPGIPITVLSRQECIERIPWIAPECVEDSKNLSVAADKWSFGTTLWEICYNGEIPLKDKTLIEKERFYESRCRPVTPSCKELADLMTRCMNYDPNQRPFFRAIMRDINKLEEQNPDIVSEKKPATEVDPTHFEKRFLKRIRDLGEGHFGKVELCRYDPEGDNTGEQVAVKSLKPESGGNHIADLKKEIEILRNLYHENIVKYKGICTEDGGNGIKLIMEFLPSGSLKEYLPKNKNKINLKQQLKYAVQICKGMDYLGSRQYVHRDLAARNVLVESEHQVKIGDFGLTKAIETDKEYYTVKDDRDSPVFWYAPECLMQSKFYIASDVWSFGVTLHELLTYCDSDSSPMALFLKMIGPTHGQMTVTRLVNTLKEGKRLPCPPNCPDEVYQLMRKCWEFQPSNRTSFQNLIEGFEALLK
run-description: pSTAT3 cell assay (MSD; TF1 cells, 30 ng/mL IL-6 stimulation)
measurement-context: 30 ng/mL IL-6, 15 minutes
pIC50: −log10 of the molar value. Where a name gives a salt, the structure may show the parent alone.
parameter: pIC50

Reference set (5 entries):
{"molecule": "C[C@@H]1CN(c2ccnn3cc(-c4ccc(CC#N)cn4)cc23)C(=O)[C@]1(C#N)C1CC1 [Example 127, trifluoroacetate]", "assayed-target": "JAK1 kinase activity on STAT3 in TF1 cells (Homo sapiens, UniProt P23458)", "pIC50": "5.00 to 5.30"}
{"molecule": "C[C@@H]1CN(c2ccnn3cc(-c4cnn(-c5cccnc5)c4)cc23)C(=O)[C@]1(C#N)C1CC1 [Example 159]", "assayed-target": "JAK1 kinase activity on STAT3 in TF1 cells (Homo sapiens, UniProt P23458)", "pIC50": "5.30 to 6.00"}
{"molecule": "C[C@@H]1CN(c2nn(-c3cnn(C4COC4)c3)c3cnccc23)C(=O)[C@]1(C#N)C1CC1 [Example 278]", "assayed-target": "JAK1 kinase activity on STAT3 in TF1 cells (Homo sapiens, UniProt P23458)", "pIC50": "5.00 to 5.30"}
{"molecule": "Cc1cncc(-c2cc3c(N4C[C@@H](C)[C@@](C#N)(C5CC5)C4=O)ccnn3c2)c1 [Example 71]", "assayed-target": "JAK1 kinase activity on STAT3 in TF1 cells (Homo sapiens, UniProt P23458)", "pIC50": "5.30 to 6.00"}
{"molecule": "C[C@@H]1CN(c2ccnn3cc(-c4cnn5c4CCC5)cc23)C(=O)[C@]1(C#N)C1CC1 [Example 171]", "assayed-target": "JAK1 kinase activity on STAT3 in TF1 cells (Homo sapiens, UniProt P23458)", "pIC50": "5.00 to 5.30"}

Give the measured pIC50 of C[C@@H]1CN(c2ccnn3cc(-c4cnn([C@@H]5CC5(F)F)c4)cc23)C(=O)[C@]1(C#N)C1CC1 (single isomer, unassigned) [Example 155] .
5.30 to 6.00

Okay, and C[C@@H]1CN(c2ccnn3cc(-c4ccc(N(C)C)nc4)cc23)C(=O)[C@]1(C#N)C1CC1 [Example 62] ?
5.30 to 6.00
